Reported Kd values, Kelch domain of human KEAP1 (321-624 aa) (Homo sapiens (Human), UniProt Q14145).
MEASUREMENT LABEL: Kd (nM)

P = Cc1ccc(C(CC(=O)O)c2ccn3c(C(F)(F)F)nnc3c2C)cc1CN1CC2(CC2)N(C)c2ncccc2S1(=O)=O (racemic)
Q = Cc1ccc([C@@H](c2ccn3c(C(F)(F)F)nnc3c2)C(C)(C)C(=O)O)cc1CN1CC2(CCOCC2)Oc2ncccc2S1(=O)=O (single isomer, unassigned)
In: Which shows the larger Kd value: P or Q ? Please reply using the label of the selected record.
Out: Q

* * *

Reported pKd values, Kelch domain of human KEAP1 (321-624 aa) (Homo sapiens (Human)).
pKd: −log10 of the molar value.
MEASUREMENT LABEL: pKd

Use these answered entries as a reference point.
Cc1cnc2c(c1)S(=O)(=O)N(Cc1cc([C@H](c3ccc4c(nnn4C4CC4)c3C)C(C)(C)C(=O)O)ccc1C)CC1(CCNCC1)O2 (single isomer, unassigned) :: 5.84
CCn1nnc2c(C)c([C@@H](c3cnc(C)c(CN4CC5(CCOCC5)Oc5ncccc5S4(=O)=O)c3)C(C)(C)C(=O)O)ccc21 (single isomer, unassigned) :: 8.92

a = Cc1ccc([C@H](CC(=O)O)c2ccn3c(C(F)(F)F)nnc3c2C)cc1CN1CC2(CC2)N(C)c2ncccc2S1(=O)=O (single isomer, unassigned)
b = Cc1ccc([C@@H](c2ccn3c(C(F)(F)F)nnc3c2C)C(C)(C)C(=O)O)cc1CN1CC2(CCOCC2)Oc2nc(OCCCOCCCO)ccc2S1(=O)=O (single isomer, unassigned)
c = Cc1ccc(C(CC(=O)O)c2ccn3c(C(F)(F)F)nnc3c2C)cc1CN1C[C@@H]2CN(C)CCN2c2ncccc2S1(=O)=O (mixture of isomers)
d = Cc1ccc([C@@H](c2ccn3c(C(F)(F)F)nnc3c2C)C(C)(C)C(=O)O)cc1CN1CC(C)(C)Oc2ncccc2S1(=O)=O (single isomer, unassigned)
In: Thanks in advance: please rank these 4 entries by pKd, highest to lowest. // respond by listing labels in the order requested
Out: a, c, b, d
(a: 8.85, c: 7.31, b: 5.87, d: 5.11)

Data credit: patent US10947252B2
